system: Mino BTK C481S cells; experiment: Cell viability assay, Mino BTK C481S; assay type: cell-based; conditions: Homo sapiens, 48 h, read-out: IC50, anti-proliferative activity, Mino BTK C481S
Measurement name: pIC50
Worth noting: pIC50 values are minus log10 of concentrations stated in mol/L.

Challenge: Indicate its recorded pIC50; the compound in question is C=CC(=O)N1CCC[C@@H](n2nc(-c3ccc(Oc4ccccc4)cc3)c3c(N)ncnc32)C1
Response given: 5.20

* * *

biological target: PI3Kγ (Homo sapiens)
Sequence (P48736 whole entry): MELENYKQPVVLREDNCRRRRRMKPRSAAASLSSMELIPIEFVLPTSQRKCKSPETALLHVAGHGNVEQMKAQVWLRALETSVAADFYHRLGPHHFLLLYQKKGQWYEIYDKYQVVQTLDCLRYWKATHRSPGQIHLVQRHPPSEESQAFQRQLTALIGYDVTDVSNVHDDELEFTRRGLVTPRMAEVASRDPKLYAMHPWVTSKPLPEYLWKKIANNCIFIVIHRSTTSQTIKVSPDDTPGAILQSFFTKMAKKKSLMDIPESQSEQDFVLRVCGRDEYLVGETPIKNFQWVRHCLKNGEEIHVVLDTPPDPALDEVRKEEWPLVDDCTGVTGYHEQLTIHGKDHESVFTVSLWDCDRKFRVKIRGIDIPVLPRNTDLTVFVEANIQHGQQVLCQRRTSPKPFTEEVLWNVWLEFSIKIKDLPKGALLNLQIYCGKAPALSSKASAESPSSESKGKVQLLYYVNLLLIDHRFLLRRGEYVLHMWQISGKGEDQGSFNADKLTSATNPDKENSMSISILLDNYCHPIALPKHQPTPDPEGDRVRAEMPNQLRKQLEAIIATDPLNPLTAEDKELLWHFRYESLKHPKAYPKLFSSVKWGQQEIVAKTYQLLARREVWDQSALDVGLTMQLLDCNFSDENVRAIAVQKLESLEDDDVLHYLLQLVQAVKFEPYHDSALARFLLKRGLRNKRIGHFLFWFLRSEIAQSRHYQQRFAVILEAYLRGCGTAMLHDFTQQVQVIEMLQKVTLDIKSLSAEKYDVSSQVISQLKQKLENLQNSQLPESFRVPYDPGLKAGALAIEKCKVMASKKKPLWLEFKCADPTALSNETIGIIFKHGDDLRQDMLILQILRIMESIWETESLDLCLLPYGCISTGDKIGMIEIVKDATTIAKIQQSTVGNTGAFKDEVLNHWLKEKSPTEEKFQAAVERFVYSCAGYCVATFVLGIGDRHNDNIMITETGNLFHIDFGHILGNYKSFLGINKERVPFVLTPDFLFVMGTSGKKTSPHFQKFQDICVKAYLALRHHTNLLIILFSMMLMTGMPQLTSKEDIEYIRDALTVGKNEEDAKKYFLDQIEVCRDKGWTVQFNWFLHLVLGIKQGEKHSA
pIC50: −log10 of the molar value.
Measurement name: pIC50

Challenge: Read off the recorded pIC50 for Cc1sc2c(c1C)C(c1ccc(Cl)cc1)=N[C@@H](CC(=O)OC(C)(C)C)c1nnc(C)n1-2
Response given: < 4.30

* * *

Measurement name: IC50

Challenge: Please respond with reported IC50 (system PI3Kδ (Homo sapiens, UniProt O00329)) for Cc1sc2c(c1C)C(c1ccc(Cl)cc1)=N[C@@H](CC(=O)OC(C)(C)C)c1nnc(C)n1-2 .
Response given: > 50 µM
